Source of measurements: paper PMC8445441

Tested on: P. aeruginosa AUMC-Pa-6
assay_name: microbe, parasite or virus in culture
experimental_setup: strain AUMC-Pa-6; with D-11 at MICbc 4; unit not given
Positions of bridges follow the written chain, without caps; N, C: chain ends. Non-standard residues stand in square brackets, D forms with d. Residues, ends and D or L forms follow the SMILES beside them. *: point of attachment. X1 = CC[C@H](C)CCCCC(=O)*; Dab = NCC[C@H](N)C(=O)O
Parameter MICac: MIC of the antibiotic in the combination: see the listing below.
measure_name: MICac: MIC of the antibiotic in the combination

compound | measured_value
C[C@@H](O)[C@H]1C(=O)N2C(C(=O)O)=C(S[C@@H]3CN[C@H](C(=O)N(C)C)C3)[C@H](C)[C@H]12 | 4
CO[C@H]1[C@H](OC(=O)c2ccc(C)[nH]2)[C@H](O)[C@@H](Oc2ccc3c(O)c(NC(=O)c4c[nH]c(C(=O)Nc5c(O)c6ccc(O[C@H]7OC(C)(C)[C@@H](OC)[C@H](OC(=O)c8ccc(C)[nH]8)[C@@H]7O)c(C)c6oc5=O)c4C)c(=O)oc3c2C)OC1(C)C | 2
C[C@H]1[C@H](NC(=O)/C(=N\OC(C)(C)C(=O)O)c2csc(N)n2)C(=O)N1S(=O)(=O)O | 8
CO[C@H]1/C=C/O[C@@]2(C)Oc3c(C)c(O)c4c(c3C2=O)C2=NC3(CCN(CC(C)C)CC3)NC2=C(NC(=O)/C(C)=C\C=C\[C@H](C)[C@H](O)[C@@H](C)[C@@H](O)[C@@H](C)[C@H](OC(C)=O)[C@@H]1C)C4=O | 4
CO[C@H]1/C=C/O[C@@]2(C)Oc3c(C)c(O)c4c(O)c(c5c(nc6cc(C)ccn65)c4c3C2=O)NC(=O)/C(C)=C\C=C\[C@H](C)[C@H](O)[C@@H](C)[C@@H](O)[C@@H](C)[C@H](OC(C)=O)[C@@H]1C | 4
CC[C@H](C)CCCCC(=O)N[C@@H](CCN)C(=O)N[C@H](C(=O)N[C@@H](CCN)C(=O)N[C@H]1CCNC(=O)[C@H]([C@@H](C)O)NC(=O)[C@H](CCN)NC(=O)[C@H](CCN)NC(=O)[C@H](CC(C)C)NC(=O)[C@@H](CC(C)C)NC(=O)[C@H](CCN)NC1=O)[C@@H](C)O [Colistin] (X1-[Dab]T[Dab][Dab][Dab][dL]L[Dab][Dab]T; lactam 4-C (inferred); N-terminus assumed) | 2
